test name: in vitro
applied conditions: human, HCT8 cells
Description: Cytotoxicity against human HCT8 cells assessed as inhibition of cell proliferation at 100 uM after 4 hrs by MTT assay relative to control
readout type: inhibition at 4 h, 100 µM (%)
Number in %, nothing else.

Need inhibition at 4 h, 100 µM, item O=C(CCC1NC(=O)NC1=O)NCCc1c[nH]c2ccccc12 (stereo unspecified)
35

* * *

Protein target, amino acids: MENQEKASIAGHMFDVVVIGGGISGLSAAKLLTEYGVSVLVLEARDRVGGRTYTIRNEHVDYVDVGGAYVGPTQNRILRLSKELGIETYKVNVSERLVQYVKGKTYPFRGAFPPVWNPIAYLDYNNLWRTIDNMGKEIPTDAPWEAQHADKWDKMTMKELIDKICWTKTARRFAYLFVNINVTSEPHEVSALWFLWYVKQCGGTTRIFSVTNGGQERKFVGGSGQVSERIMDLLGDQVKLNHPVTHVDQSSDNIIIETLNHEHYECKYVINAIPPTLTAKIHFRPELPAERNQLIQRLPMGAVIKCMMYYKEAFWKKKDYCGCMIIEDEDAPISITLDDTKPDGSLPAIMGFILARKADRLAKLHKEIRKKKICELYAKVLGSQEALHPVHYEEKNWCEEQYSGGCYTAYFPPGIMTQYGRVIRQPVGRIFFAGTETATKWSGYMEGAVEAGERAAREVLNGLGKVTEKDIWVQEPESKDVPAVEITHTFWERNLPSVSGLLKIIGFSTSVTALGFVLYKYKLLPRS
pIC50: −log10 of the molar value.
readout type: pIC50

Value lookup for pIC50; key = O=C(CCC1NC(=O)NC1=O)NCCc1c[nH]c2ccccc12 (stereo unspecified)
< 3.70

* * *

assayed target: UniProt O60341
pIC50: −log10 of the molar value.
readout type: pIC50

Hello, I am looking for reported pIC50 with UniProt O60341 for Cc1nc(-c2ccc(CN(C)Cc3cccc4cnccc34)cc2)[nH]c(=O)c1F . Could you help?
< 4.00

* * *

test name: in vitro
applied conditions: human, SW620 cells
Description: Cytotoxicity against human SW620 cells assessed as inhibition of cell proliferation at 100 uM after 4 hrs by MTT assay relative to control
readout type: inhibition at 4 h, 100 µM

Requested read-out: inhibition at 4 h, 100 µM. Entry: O=C(CCC1NC(=O)NC1=O)NCCc1c[nH]c2ccccc12 (stereo unspecified)
35%
